system name: 17-beta-hydroxysteroid dehydrogenase type 3 (Homo sapiens) (UniProt P37058)
Sequence (whole entry): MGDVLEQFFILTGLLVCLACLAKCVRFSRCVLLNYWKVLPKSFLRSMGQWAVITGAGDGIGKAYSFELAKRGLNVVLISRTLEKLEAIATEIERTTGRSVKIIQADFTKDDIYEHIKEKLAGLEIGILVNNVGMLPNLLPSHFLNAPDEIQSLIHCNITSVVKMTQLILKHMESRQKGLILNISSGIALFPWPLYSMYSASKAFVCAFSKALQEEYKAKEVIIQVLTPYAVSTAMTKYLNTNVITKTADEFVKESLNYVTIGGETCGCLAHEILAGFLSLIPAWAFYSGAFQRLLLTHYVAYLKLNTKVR
assay notes: Inhibition of 17beta-HSD3 (unknown origin) expressed in intact HEK293 cells assessed as residual enzyme activity at 20 uM
Assay type: cell-based
endpoint: Activity

>  <smiles representation>
O=S(=O)(Nc1cccc(O)c1)c1ccc(Br)cc1

>  <Activity>
> 70%

$$$$
>  <smiles representation>
Cc1cc(S(=O)(=O)Nc2cccc(O)c2)c(C)cc1Cl

>  <Activity>
53%

$$$$
>  <smiles representation>
COc1cc(C)c(S(=O)(=O)Nc2cccc(O)c2)cc1C

>  <Activity>
> 70%

$$$$

Query COc1ccc(S(=O)(=O)Nc2cccc(O)c2)c2c1CCCC2 on 17-beta-hydroxysteroid dehydrogenase type 3 (Homo sapiens) (UniProt P37058); Activity returned: > 70%

----------
system name: 17-beta-hydroxysteroid dehydrogenase type 2 (Homo sapiens)
assay notes: Inhibition of 17beta-HSD2 (unknown origin) expressed in intact HEK293 cells
Type: cell-based
pIC50: −log10 of the molar value.
endpoint: pIC50

>  <smiles representation>
O=C(CSc1nccc(O)n1)Nc1cccc2nsnc12

>  <pIC50>
5.96

$$$$

(a) O=S(=O)(Nc1ccc(O)c(Cl)c1)c1ccc(F)cc1
(b) CC(C)(C)c1ccc(S(=O)(=O)Oc2ccccc2O)cc1
I'm curious whether a or b has the smaller pIC50 number. Which is it? Your answer should be the label of the entry you select.
a
(a: 5.00, b: 6.28)

----------
The entries below come with measured Activity values attached.
system name: 17-beta-hydroxysteroid dehydrogenase type 2 (Homo sapiens)
Sequence (whole entry): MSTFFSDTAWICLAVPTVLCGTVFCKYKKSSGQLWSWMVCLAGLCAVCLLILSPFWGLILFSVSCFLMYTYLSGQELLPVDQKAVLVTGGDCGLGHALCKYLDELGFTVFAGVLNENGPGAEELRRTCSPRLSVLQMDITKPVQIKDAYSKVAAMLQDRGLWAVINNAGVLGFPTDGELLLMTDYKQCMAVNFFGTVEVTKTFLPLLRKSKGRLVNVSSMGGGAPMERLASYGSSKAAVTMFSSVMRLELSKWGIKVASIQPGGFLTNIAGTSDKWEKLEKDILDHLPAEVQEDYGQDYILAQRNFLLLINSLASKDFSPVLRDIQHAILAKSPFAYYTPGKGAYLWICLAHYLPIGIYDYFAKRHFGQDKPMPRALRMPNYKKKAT
assay notes: Inhibition of 17beta-HSD2 (unknown origin) expressed in HEK293 cells lysate assessed as residual enzyme activity at 20 uM
Type: cell-free

>  <smiles representation>
COc1cc(C)c(S(=O)(=O)Nc2ccc(C(=O)O)cc2)cc1C

>  <system name>
17-beta-hydroxysteroid dehydrogenase type 2 (Homo sapiens)

>  <endpoint>
Activity

>  <recorded value>
> 70%

$$$$
>  <smiles representation>
CC(=O)Nc1ccccc1OS(=O)(=O)c1ccc(C)c(C)c1

>  <system name>
17-beta-hydroxysteroid dehydrogenase type 2 (Homo sapiens)

>  <endpoint>
Activity

>  <recorded value>
> 70%

$$$$
>  <smiles representation>
COc1ccccc1OS(=O)(=O)c1ccc(NC(C)=O)cc1

>  <system name>
17-beta-hydroxysteroid dehydrogenase type 2 (Homo sapiens)

>  <endpoint>
Activity

>  <recorded value>
> 70%

$$$$
>  <smiles representation>
C/C(=N\NC(=O)COc1ccc(C)cc1Br)c1ccc(O)cc1O

>  <system name>
17-beta-hydroxysteroid dehydrogenase type 2 (Homo sapiens)

>  <endpoint>
Activity

>  <recorded value>
> 70%

$$$$

Next compound, please.
Activity for Cc1ccc(Cl)cc1NS(=O)(=O)c1ccc(F)cc1 is > 70%

Recorded values, source ChEMBL document CHEMBL3351838.
